Species on record: Rattus norvegicus
Experiment: Open TG-GATES - Regimen: Daily Repeat
Assay type: toxicity, organism-based, Sprague-Dawley
Parameters: regimen Daily Repeat, gender Male, age 6 weeks
Details: in vivo, po, 0 mg/kg, 72 h, tissue Kidney, route gavage, dose level Control, time 3 day
metric: KIDNEY_L

Using known records, supply KIDNEY_L for OCCN1CCN(CCCN2c3ccccc3Sc3ccc(C(F)(F)F)cc32)CC1
1.1 g

Indicate the recorded KIDNEY_L value for this compound: C[C@H]1O[C@H](O[C@H]2[C@H](O)[C@@H](O)[C@@H](O[C@H]3[C@H](O)[C@@H](O)C(O)O[C@@H]3CO)O[C@@H]2CO)[C@H](O)[C@@H](O)[C@@H]1N[C@H]1C=C(CO)[C@@H](O)[C@H](O)[C@H]1O (stereo partly specified)
1 g

For the compound C[C@H]1C(=O)O[C@@H]2CCN3CC=C(COC(=O)[C@](C)(O)[C@]1(C)O)[C@H]23 , report KIDNEY_L.
1 g

Give me measured KIDNEY_L, please, for this compound: Cc1cccc(C)c1OCC(C)N (stereo unspecified)
1.1 g

# return recorded KIDNEY_L for entry O=C1CN(/N=C/c2ccc([N+](=O)[O-])o2)C(=O)N1
1 g

Input CCOC(=O)C(C)(C)Oc1ccc(Cl)cc1 [CLOFIBRATE] , output reported KIDNEY_L.
1 g

* * *

Please respond with reported LIVER for every item in the list.
Species: Rattus norvegicus
Assay: Open TG-GATES - Regimen: Daily Repeat
Type: toxicity, organism-based, Sprague-Dawley
Parameters: regimen Daily Repeat, gender Male, age 6 weeks
Settings: in vivo, po, 0 mg/kg, […], tissue Liver, route gavage, dose level Control, time 28 day
Please reply with the bare figure in g and do not write the unit itself.

Indicate its recorded LIVER; the molecule in question is C[C@H]1O[C@H](O[C@H]2[C@H](O)[C@@H](O)[C@@H](O[C@H]3[C@H](O)[C@@H](O)C(O)O[C@@H]3CO)O[C@@H]2CO)[C@H](O)[C@@H](O)[C@@H]1N[C@H]1C=C(CO)[C@@H](O)[C@H](O)[C@H]1O (stereo partly drawn) [ACARBOSE]
15

Please indicate LIVER recorded for OCCN1CCN(CCCN2c3ccccc3Sc3ccc(C(F)(F)F)cc32)CC1 [FLUPHENAZINE]
17.1

Tell me LIVER reported for CCOC(=O)C(C)(C)Oc1ccc(Cl)cc1 [CLOFIBRATE]
16

Specify reported LIVER for the molecule shown: O=[N+]([O-])c1ccc(O)c([N+](=O)[O-])c1 [2,4-DINITROPHENOL]
19.9

State its LIVER for this molecule: Cc1cccc(C)c1OCC(C)N (stereo not drawn) [MEXILETINE]
16.9

In one line, give reported LIVER of the entry O=C1CN(/N=C/c2ccc([N+](=O)[O-])o2)C(=O)N1 [NITROFURANTOIN] .
17.7

Let me know recorded LIVER for C[C@H]1C(=O)O[C@@H]2CCN3CC=C(COC(=O)[C@](C)(O)[C@]1(C)O)[C@H]23 [MONOCROTALINE] , thanks.
14.7

Tell me LIVER reported for C=C(C)[C@H]1Cc2c(ccc3c2O[C@@H]2COc4cc(OC)c(OC)cc4[C@@H]2C3=O)O1 [ROTENONE]
15.3

* * *

Species on record: Rattus norvegicus
Experiment: Open TG-GATES - Regimen: Single
Format: toxicity, organism-based, Sprague-Dawley
Design: regimen Single, gender Male, age 6 weeks
Details: in vivo, po, 0 mg/kg, 6 h, tissue Blood, route gavage, dose level Control
Consider the following compounds; for each one, report its Mono.
A number alone suffices; assume %.

Find the measured Mono of C=C(C)[C@H]1Cc2c(ccc3c2O[C@@H]2COc4cc(OC)c(OC)cc4[C@@H]2C3=O)O1 and report it.
9

Look up and state reported Mono for CCOC(=O)C(C)(C)Oc1ccc(Cl)cc1 [CLOFIBRATE]
3.4

Please give the documented Mono of C[C@H]1C(=O)O[C@@H]2CCN3CC=C(COC(=O)[C@](C)(O)[C@]1(C)O)[C@H]23
2.8

Report Mono for C[C@H]1O[C@H](O[C@H]2[C@H](O)[C@@H](O)[C@@H](O[C@H]3[C@H](O)[C@@H](O)C(O)O[C@@H]3CO)O[C@@H]2CO)[C@H](O)[C@@H](O)[C@@H]1N[C@H]1C=C(CO)[C@@H](O)[C@H](O)[C@H]1O (some centres undefined)
2.6

Find the measured Mono of O=[N+]([O-])c1ccc(O)c([N+](=O)[O-])c1 and report it.
9.6

Tell me Mono reported for Cc1ccc2cc3c(ccc4ccccc43)c3c2c1CC3
3.4

Item Cc1cccc(C)c1OCC(C)N (centres undefined) : provide Mono
2.8

Please list Mono recorded for the compound Cn1cc[nH]c1=S
2.6

Please list Mono recorded for the compound OCCN1CCN(CCCN2c3ccccc3Sc3ccc(C(F)(F)F)cc32)CC1
8.2

* * *

Task for the reader: assign each of the following compounds its reported IP.
Species on record: Rattus norvegicus
Test: Open TG-GATES - Regimen: Daily Repeat
Assay type: toxicity, organism-based, Sprague-Dawley
Parameters: regimen Daily Repeat, gender Male, age 6 weeks
Details: in vivo, po, 0 mg/kg, […], tissue Plasma, route gavage, dose level Control, time 28 day
All answers are understood in mg/dL, so give the number only.

Identify IP associated with the compound C[C@H]1C(=O)O[C@@H]2CCN3CC=C(COC(=O)[C@](C)(O)[C@]1(C)O)[C@H]23 [MONOCROTALINE]
6.3

Write down IP measured for item OCCN1CCN(CCCN2c3ccccc3Sc3ccc(C(F)(F)F)cc32)CC1 [FLUPHENAZINE]
7

Please look at this compound and report its IP: C[C@H]1O[C@H](O[C@H]2[C@H](O)[C@@H](O)[C@@H](O[C@H]3[C@H](O)[C@@H](O)C(O)O[C@@H]3CO)O[C@@H]2CO)[C@H](O)[C@@H](O)[C@@H]1N[C@H]1C=C(CO)[C@@H](O)[C@H](O)[C@H]1O (some centres undefined) [ACARBOSE]
6.4

Write down IP measured for item Cc1cccc(C)c1OCC(C)N (centres undefined) [MEXILETINE]
6.6

Note down IP recorded for Cn1cc[nH]c1=S [METHIMAZOLE]
6.3

State its IP for this compound: C=C(C)[C@H]1Cc2c(ccc3c2O[C@@H]2COc4cc(OC)c(OC)cc4[C@@H]2C3=O)O1 [ROTENONE]
5.7

Annotate the compound O=[N+]([O-])c1ccc(O)c([N+](=O)[O-])c1 [2,4-DINITROPHENOL] with its measured IP.
7.2

Complete the entry with IP for O=C1CN(/N=C/c2ccc([N+](=O)[O-])o2)C(=O)N1 [NITROFURANTOIN]
6.5

Please indicate IP recorded for CCOC(=O)C(C)(C)Oc1ccc(Cl)cc1 [CLOFIBRATE]
5.9

* * *

Species: Rattus norvegicus
Test: Open TG-GATES - Regimen: Daily Repeat
Format: toxicity, organism-based, Sprague-Dawley
Set-up: regimen Daily Repeat, gender Male, age 6 weeks
Conditions: in vivo, po, 0 mg/kg, […], tissue Plasma, route gavage, dose level Control, time 14 day
metric: TC
State the value with its unit after it.

Give TC for CCOC(=O)C(C)(C)Oc1ccc(Cl)cc1 [CLOFIBRATE]
74.2 mg/dL

Identify TC associated with the compound Cn1cc[nH]c1=S
75.4 mg/dL

Output TC of O=[N+]([O-])c1ccc(O)c([N+](=O)[O-])c1
72.8 mg/dL

Report TC, nothing else, for this compound: OCCN1CCN(CCCN2c3ccccc3Sc3ccc(C(F)(F)F)cc32)CC1
77 mg/dL

Please list TC recorded for the compound C=C(C)[C@H]1Cc2c(ccc3c2O[C@@H]2COc4cc(OC)c(OC)cc4[C@@H]2C3=O)O1
80 mg/dL

Provide one value: measured TC of O=C1CN(/N=C/c2ccc([N+](=O)[O-])o2)C(=O)N1
66.4 mg/dL

Supply reported TC belonging to this compound: Cc1cccc(C)c1OCC(C)N (centres undefined)
70.2 mg/dL

Read off the recorded TC for C[C@H]1O[C@H](O[C@H]2[C@H](O)[C@@H](O)[C@@H](O[C@H]3[C@H](O)[C@@H](O)C(O)O[C@@H]3CO)O[C@@H]2CO)[C@H](O)[C@@H](O)[C@@H]1N[C@H]1C=C(CO)[C@@H](O)[C@H](O)[C@H]1O (some centres undefined)
74.4 mg/dL

Return value of TC for input C[C@H]1C(=O)O[C@@H]2CCN3CC=C(COC(=O)[C@](C)(O)[C@]1(C)O)[C@H]23 , no commentary.
66.6 mg/dL

* * *

Organism: Rattus norvegicus
Assay: Open TG-GATES - Regimen: Daily Repeat
Type: toxicity, organism-based, Sprague-Dawley
Parameters: regimen Daily Repeat, gender Male, age 6 weeks
Settings: in vivo, po, 0 mg/kg, […], tissue Plasma, route gavage, dose level Control, time 14 day
For each entry below, report its TG value.
Dear colleague, please return just the value in mg/dL, with no unit written.

Supply measured TG of Cn1cc[nH]c1=S [METHIMAZOLE] in your reply.
150.2

// Input: C[C@H]1C(=O)O[C@@H]2CCN3CC=C(COC(=O)[C@](C)(O)[C@]1(C)O)[C@H]23 [MONOCROTALINE] . Output its TG only.
148

Return TG (reported value) for this molecule: Cc1cccc(C)c1OCC(C)N (centres undefined) [MEXILETINE]
143

Identify measured TG associated with C[C@H]1O[C@H](O[C@H]2[C@H](O)[C@@H](O)[C@@H](O[C@H]3[C@H](O)[C@@H](O)C(O)O[C@@H]3CO)O[C@@H]2CO)[C@H](O)[C@@H](O)[C@@H]1N[C@H]1C=C(CO)[C@@H](O)[C@H](O)[C@H]1O (some centres undefined) [ACARBOSE]
182.4

For the molecule OCCN1CCN(CCCN2c3ccccc3Sc3ccc(C(F)(F)F)cc32)CC1 [FLUPHENAZINE] , report TG.
181.8

For the molecule C=C(C)[C@H]1Cc2c(ccc3c2O[C@@H]2COc4cc(OC)c(OC)cc4[C@@H]2C3=O)O1 [ROTENONE] , give its measured TG value.
131.8

Given the molecule CCOC(=O)C(C)(C)Oc1ccc(Cl)cc1 [CLOFIBRATE] , write its reported TG.
118.4

Please list TG recorded for the molecule O=[N+]([O-])c1ccc(O)c([N+](=O)[O-])c1 [2,4-DINITROPHENOL]
182

Tell me measured TG for O=C1CN(/N=C/c2ccc([N+](=O)[O-])o2)C(=O)N1 [NITROFURANTOIN] please.
148.8
